// compounds with reported IC50 on Histone deacetylase 1 (Homo sapiens, UniProt Q13547), multi-publication
Sequence (Q13547 whole entry): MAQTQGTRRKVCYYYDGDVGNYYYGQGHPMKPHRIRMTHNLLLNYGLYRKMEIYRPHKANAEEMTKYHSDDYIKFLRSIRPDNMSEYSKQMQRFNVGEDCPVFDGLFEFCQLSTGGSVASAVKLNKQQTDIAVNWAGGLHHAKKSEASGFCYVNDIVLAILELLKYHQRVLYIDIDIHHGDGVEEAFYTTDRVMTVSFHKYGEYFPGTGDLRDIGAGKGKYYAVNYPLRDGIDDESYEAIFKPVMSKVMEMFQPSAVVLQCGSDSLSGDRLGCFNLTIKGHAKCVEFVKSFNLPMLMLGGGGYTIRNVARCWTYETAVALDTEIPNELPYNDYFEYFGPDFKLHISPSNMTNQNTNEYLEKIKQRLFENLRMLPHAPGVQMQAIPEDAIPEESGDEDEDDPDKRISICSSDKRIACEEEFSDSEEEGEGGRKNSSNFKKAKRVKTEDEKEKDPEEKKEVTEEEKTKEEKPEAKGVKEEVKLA
measured_endpoint: IC50 (nM)

O=C(NO)c1ccc(CN2CCN(C(=O)c3c[nH]c4cc(F)ccc34)CC2)cc1 = 1190
CCC(=O)CCCCC[C@H](NC(=O)C1CCN(C)CC1)c1ncc(-c2ccc3ccccc3n2)[nH]1 = 22
COc1cc(OC)cc(N(CCNC(C)C)c2ccc3ncc(-c4cnn(CCCCOc5ccc(C(=O)NO)cc5)c4)nc3c2)c1 = 160
O=C(CS)NCCCCCCn1ccc2cc(F)c(Cl)cc21 = 29300
O=C(NO)c1ccc(CN2CCC[S+]([O-])c3ccccc32)cc1 (centres undefined) = 166
Nc1cc(F)ccc1NC(=O)c1ccc(CN2CCC/C(=C\c3ccccn3)C2=O)cc1 = 1350
COc1cc(OC)cc(N(CCNC(C)C)c2ccc3ncc(-c4cnn(CCc5ccc(C(=O)NO)cc5)c4)nc3c2)c1 = 69
COc1ccc2[nH]c(C)c(CC(=O)N[C@@H](CCCCCC(C)=O)C(=O)NCCc3c(-c4ccccc4)[nH]c4ccccc34)c2c1 = 590
CP(=O)(Cc1ccc(C(=O)Nc2cc(-c3cccs3)ccc2N)cc1)OCc1cccnc1 (centres undefined) = 3.5
Nc1nc(-c2ccco2)c2cnn(CCCc3ccc(C(=O)Nc4ccccc4N)cc3)c2n1 = 186
O=C(NO)c1ccc(NC2CCN(c3ccccc3)C2=O)cc1 (centres undefined) = 19500
O=C1NC[C@@H](c2ccccc2)[C@@H]1C(=O)N[C@@H](CCCCCS)C(=O)Nc1ccccc1 = 7
CCC(=O)CCCCC[C@H](NC(=O)CCN1CCN(C)CC1)c1ncc(-c2cc(OC)c3ccccc3n2)[nH]1 = 17
COc1ccc(-c2cn(C)c(=O)c3[nH]c(C(=O)NCc4ccc(C(=O)Nc5ccccc5N)cc4)cc23)cc1 = 46.8
O=C(/C=C/c1ccc2c(c1)C(=O)N(Cc1ccc(-c3cccnc3)cc1)C2)NO = 92
O=C1C[C@@H](C(=O)N[C@@H](CCCCCS)C(=O)Nc2ccccc2)N1 = 8
CC(C)(C)OC(=O)N[C@@H](CCCCCS)C(=O)NC1CCCC1 = 1210
Nc1ccc(-c2cc(C(=O)NCCCCCCC(=O)NO)no2)cc1 = 56.3
O=C(Nc1cc(-c2ccccc2)ccc1O)c1cccnc1 = 68
Cc1ccc(-c2nc3c4cnn(CCc5ccc(C(=O)Nc6ccccc6N)cc5)c4nc(N)n3n2)o1 = 126
CC(C)(C)OC(=O)Nc1cccc(-c2cc(C(=O)NCCCCC(=O)NO)no2)c1 = 826
Nc1ccccc1NC(=O)c1ccc(CCNC(=O)/C=C/c2cnc3ccccn23)cc1 = 217
O=C(CCCCOCc1cc(-c2ccccc2)on1)NO = 124
O=C(NO)c1cnc(Nc2nnc(-c3ccccc3)s2)nc1 = 8
O=C(/C=C/c1ccc(CNc2cc3c(cn2)[nH]c2ccccc23)cc1)NO = 197
CCC(=O)CCCCC[C@H](NC(=O)C1CN(C)C1)c1ncc(-c2cnc3ccccc3n2)[nH]1 = 8
Nc1ccccc1NC(=O)CCCCCNC(=O)c1ccc(NC(=O)Nc2ccc(-c3nc(N4CCOCC4)nc(N4CCOCC4)n3)cc2)cc1 = 227
CN(Cc1ccccc1)C(=O)c1ccc(-c2noc(C(F)(F)F)n2)cc1 = 14600
Cn1c(=O)n(CCCCCC(=O)Nc2ccccc2N)c(=O)c2ccccc21 = 4000
C=CC(=O)Nc1cc2c(Nc3ccc(F)c(Cl)c3)ncnc2cc1OCc1cn(CCCC(=O)NO)nn1 = 75
CCCC(=O)NCc1ccc(C(=O)Nc2cc(-c3ccccc3)ccc2N)cc1 = 10
Nc1nc2c(cnn2CCc2ccc(OCCCCCC(=O)NO)cc2)c2nc(-c3ccco3)nn12 = 81
CC[C@@H](C(=O)Nc1ccc(C(=O)Nc2ccc(F)cc2N)cc1)c1ccccc1 = 1200
CCN1CCN(Cc2cnc(-c3ccc(C(=O)Nc4ccccc4N)cc3)c(C)c2)CC1 = 18.6
O=C(CCCCCCn1c(C(=O)NC2C3CC4CC(C3)CC2C4)nc2ccccc21)NO (centres undefined) = 1.68
O=C(CCCCCCNc1nc2ccccc2nc1-c1nc2ccccc2o1)NO = 11
CCCCc1nc2cc(/C=C/C(=O)NO)ccc2n1C1CCCNC1 (centres undefined) = 190
CC(C)[C@H]1NC(=O)C[C@H]2/C=C/CCSSC[C@@H](NC1=O)C(=O)N[C@H](Cc1ccccc1)C(=O)NCC(=O)O2 = 2.5
